Experimental Target: purified recombinant human alpha synuclein fibrils (human, UniProt P37840 1-140)
Procedure Text: SPR, Biacore T200, as in Example 3; Fab injected;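 note: ligands amine-coupled on CM5 chip flow cells, HBS-EP+ running buffer, kinetic data fitted with 1:1 model allowing local bulk contribution and global Rmax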
Would you kindly list kon for each of these binders?
One number for each entry, in M⁻¹ s⁻¹.

Illustrative cases are given below, each with its answer.
I am curious: what kon value has been reported for 6470 rabbit Fab with heavy chain mutation S55N (Fab, V domains shown) VH: QSVEESGGRLVTPGTPLTLTCTVSGIDLSSHDMYWVRQAPGKGLEYIGAIYASGNTYYASWAKGRFTISKTSTTVDLKMTSLTTEDTATYFCARIHYGNSGGLWGQGTLVTVSS VL: AIVMTQTPSSKSVAVGDTVTINCQASQSVYKNNYLAWFQQKPGQPPKQLIYGASTLASGVPSRFKGSGSGTQFTLTISDVVCDDAATYYCAGYKGGRNDGFAFGGGTEVVVKR ?
9.2e+06

What does the record list as kon for 6470 rabbit Fab with heavy chain mutation N99R (Fab, V domains shown) VH: QSVEESGGRLVTPGTPLTLTCTVSGIDLSSHDMYWVRQAPGKGLEYIGAIYASGSTYYASWAKGRFTISKTSTTVDLKMTSLTTEDTATYFCARIHYGRSGGLWGQGTLVTVSS VL: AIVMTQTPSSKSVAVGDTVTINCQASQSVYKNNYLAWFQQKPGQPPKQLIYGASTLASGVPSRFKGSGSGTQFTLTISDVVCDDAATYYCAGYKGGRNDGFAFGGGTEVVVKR ?
1.89e+07

Would you kindly share the measured kon for 6470 rabbit Fab with heavy chain mutation H31K (Fab, V domains shown) VH: QSVEESGGRLVTPGTPLTLTCTVSGIDLSSKDMYWVRQAPGKGLEYIGAIYASGSTYYASWAKGRFTISKTSTTVDLKMTSLTTEDTATYFCARIHYGNSGGLWGQGTLVTVSS VL: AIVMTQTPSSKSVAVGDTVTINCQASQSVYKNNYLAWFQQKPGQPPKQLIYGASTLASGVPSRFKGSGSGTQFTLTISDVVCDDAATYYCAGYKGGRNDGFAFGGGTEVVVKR ?
9.06e+06

May I ask what kon has been recorded for 6470 rabbit Fab with heavy chain mutation N99W (Fab, V domains shown) VH: QSVEESGGRLVTPGTPLTLTCTVSGIDLSSHDMYWVRQAPGKGLEYIGAIYASGSTYYASWAKGRFTISKTSTTVDLKMTSLTTEDTATYFCARIHYGWSGGLWGQGTLVTVSS VL: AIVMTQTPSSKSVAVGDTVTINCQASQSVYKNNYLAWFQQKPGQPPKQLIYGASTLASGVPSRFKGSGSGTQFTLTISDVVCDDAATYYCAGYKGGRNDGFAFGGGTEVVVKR ?
5.27e+06

Fill blank: measured kon of the binder 6470 rabbit Fab with heavy chain mutation H31Q (Fab, V domains shown) VH: QSVEESGGRLVTPGTPLTLTCTVSGIDLSSQDMYWVRQAPGKGLEYIGAIYASGSTYYASWAKGRFTISKTSTTVDLKMTSLTTEDTATYFCARIHYGNSGGLWGQGTLVTVSS VL: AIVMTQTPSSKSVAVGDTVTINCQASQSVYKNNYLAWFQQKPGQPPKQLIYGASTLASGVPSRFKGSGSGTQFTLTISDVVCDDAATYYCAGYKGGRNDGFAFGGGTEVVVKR is ____.
7.83e+06

Endpoint output: kon of 6470 rabbit Fab with heavy chain mutation S53N (Fab, V domains shown) VH: QSVEESGGRLVTPGTPLTLTCTVSGIDLSSHDMYWVRQAPGKGLEYIGAIYANGSTYYASWAKGRFTISKTSTTVDLKMTSLTTEDTATYFCARIHYGNSGGLWGQGTLVTVSS VL: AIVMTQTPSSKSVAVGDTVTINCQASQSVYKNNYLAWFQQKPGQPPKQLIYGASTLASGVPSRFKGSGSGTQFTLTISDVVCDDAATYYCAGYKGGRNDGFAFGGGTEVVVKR . Value?
5.75e+06

Fill in: kon of 6470 rabbit Fab with heavy chain mutation H31R (Fab, V domains shown) VH: QSVEESGGRLVTPGTPLTLTCTVSGIDLSSRDMYWVRQAPGKGLEYIGAIYASGSTYYASWAKGRFTISKTSTTVDLKMTSLTTEDTATYFCARIHYGNSGGLWGQGTLVTVSS VL: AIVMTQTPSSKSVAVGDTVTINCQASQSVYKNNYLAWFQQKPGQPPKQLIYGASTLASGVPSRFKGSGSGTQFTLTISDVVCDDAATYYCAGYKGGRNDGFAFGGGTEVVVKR is ___
5.98e+06

Item under review: 6470 rabbit Fab with light chain mutation N33K (Fab, V domains shown) VH: QSVEESGGRLVTPGTPLTLTCTVSGIDLSSHDMYWVRQAPGKGLEYIGAIYASGSTYYASWAKGRFTISKTSTTVDLKMTSLTTEDTATYFCARIHYGNSGGLWGQGTLVTVSS VL: AIVMTQTPSSKSVAVGDTVTINCQASQSVYKNKYLAWFQQKPGQPPKQLIYGASTLASGVPSRFKGSGSGTQFTLTISDVVCDDAATYYCAGYKGGRNDGFAFGGGTEVVVKR . Reported kon?
6.93e+06

Entry 6470 rabbit Fab with heavy chain mutation N99H (Fab, V domains shown) VH: QSVEESGGRLVTPGTPLTLTCTVSGIDLSSHDMYWVRQAPGKGLEYIGAIYASGSTYYASWAKGRFTISKTSTTVDLKMTSLTTEDTATYFCARIHYGHSGGLWGQGTLVTVSS VL: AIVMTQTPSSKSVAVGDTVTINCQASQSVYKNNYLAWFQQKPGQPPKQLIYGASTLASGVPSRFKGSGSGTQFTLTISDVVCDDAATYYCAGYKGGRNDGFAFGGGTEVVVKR : reported kon = ?
6.2e+06

For the next question, use this binder.
What value of kon has been recorded for this entry: 6470 rabbit Fab with light chain mutation N33R (Fab, V domains shown) VH: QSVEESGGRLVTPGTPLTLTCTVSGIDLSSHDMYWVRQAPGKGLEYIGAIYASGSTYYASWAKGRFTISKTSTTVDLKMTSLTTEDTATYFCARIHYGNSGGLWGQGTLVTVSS VL: AIVMTQTPSSKSVAVGDTVTINCQASQSVYKNRYLAWFQQKPGQPPKQLIYGASTLASGVPSRFKGSGSGTQFTLTISDVVCDDAATYYCAGYKGGRNDGFAFGGGTEVVVKR
9.98e+06
